assay: Plasma PK of ixazomib given with lenalidomide–dexamethasone, phase 1 study in East Asian patients with RRMM (LC/MS/MS, non-compartmental analysis)
Format: in vivo, human
experimental-context: human, plasma, po, cycle 1 day 15; Overall; geometric mean (% CV); 4.0 mg oral + lenalidomide–dexamethasone; read-out: AUC0–168
reported-property: AUC(0-t) (ng·h/mL)

{"query-smiles": "CC(C)C[C@H](NC(=O)CNC(=O)c1cc(Cl)ccc1Cl)B(O)O", "reported-property": "AUC(0-t)", "reported-result": 1610}

====

assay: Plasma PK of ixazomib given with lenalidomide–dexamethasone, phase 1 study in East Asian patients with RRMM (LC/MS/MS, non-compartmental analysis)
Format: in vivo, human
experimental-context: human, plasma, po, cycle 1 day 15; Korean; geometric mean (% CV); 4.0 mg oral + lenalidomide–dexamethasone
reported-property: Cmax (ng/mL)

{"query-smiles": "CC(C)C[C@H](NC(=O)CNC(=O)c1cc(Cl)ccc1Cl)B(O)O", "reported-property": "Cmax", "reported-result": 38}
